# Target: Peroxisome proliferator-activated receptor gamma (Homo sapiens)
# Sequence (P37231 whole entry): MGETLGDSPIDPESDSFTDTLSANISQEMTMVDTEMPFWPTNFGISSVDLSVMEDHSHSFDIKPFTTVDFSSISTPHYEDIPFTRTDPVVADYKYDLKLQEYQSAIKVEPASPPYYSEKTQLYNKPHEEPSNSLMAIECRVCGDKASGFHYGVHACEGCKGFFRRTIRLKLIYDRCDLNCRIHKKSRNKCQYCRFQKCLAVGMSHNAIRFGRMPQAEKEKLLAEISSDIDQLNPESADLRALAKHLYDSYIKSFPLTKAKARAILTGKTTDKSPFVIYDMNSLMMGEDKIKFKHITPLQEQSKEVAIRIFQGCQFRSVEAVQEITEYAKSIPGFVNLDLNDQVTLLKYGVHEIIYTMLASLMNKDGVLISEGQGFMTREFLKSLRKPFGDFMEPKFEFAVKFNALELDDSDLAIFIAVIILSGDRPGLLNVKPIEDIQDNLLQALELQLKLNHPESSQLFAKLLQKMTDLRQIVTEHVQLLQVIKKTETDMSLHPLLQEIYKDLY
# Procedure Details: Agonist activity at PPARgamma in HEK293 cells assessed as transactivation incubated for 5 to 10 mins by microplate reader analysis
Test Readout: pEC50
Remember the convention: pEC50 equals -log10 of concentration in molar.

# pEC50 of `Cc1ccc(CN2C(=O)S/C(=C\c3ccc(Nc4ccc([N+](=O)[O-])cc4)s3)C2=O)cc1` = 5.81

# pEC50 of `Cc1ccc(CN2C(=O)S/C(=C\c3ccc(Oc4ccccc4)s3)C2=O)cc1` = 5.56

# pEC50 of `Cc1ccc(CN2C(=O)S/C(=C\c3ccc(Nc4ccc(Cl)cc4)s3)C2=O)cc1` = 5.83

# pEC50 of `Cc1ccc(CN2C(=O)S/C(=C\c3ccc(Nc4ccc(Cl)cc4)cc3)C2=O)cc1` = 5.87

# pEC50 of `Cc1ccc(CN2C(=O)S/C(=C\c3ccc(Oc4ccc([N+](=O)[O-])cc4)s3)C2=O)cc1` = 5.81

# pEC50 of `Cc1ccc(CN2C(=O)S/C(=C\c3ccc(Oc4ccc5ccccc5c4)s3)C2=O)cc1` = 5.45

# pEC50 of `Cc1ccc(CN2C(=O)S/C(=C\c3ccc(OCc4ccccc4)s3)C2=O)cc1` = 5.70

Source of measurements: ChEMBL document CHEMBL5634122
